Readings of % Inhibition of Control Swelling for the listed molecules
- Tested on: inflammation induced by tetradecanoyl phorbol acetate (TPA)
- Protocol summary: TPA Inflammation Inhibition Test
- Type: in vivo, mice
- Conditions used: mouse ear edema, topical, 100 mg/ear, four hours
Structures can show the parent of a compound that is named as a salt.

Molecule	System tested	% Inhibition of Control Swelling
CCCCCCC(C)OCCCC(=O)c1ccc(F)cc1 (stereo not shown)	inflammation induced by tetradecanoyl phorbol acetate (TPA)	20%

Can you share its % Inhibition of Control Swelling? I mean this molecule: CC(C)c1ccc2c(c1)CCC1C(C)(CNCCC(=O)c3ccccc3)CCCC21C (stereo not shown) 31%

Can you share its % Inhibition of Control Swelling? I mean this molecule: COc1ccc(CNCCC(=O)c2ccc(F)cc2)c2ccccc12 [Example 7, Hydrochloride] 21%

Can you share its % Inhibition of Control Swelling? I mean this molecule: CC(C)c1ccc2c(c1)CCC1C(C)(CNCCC(=O)c3ccc(F)cc3)CCCC21C.Cl (stereo not shown) 40%

// data source = patent US4948813A
